Quick list: pKd per entry.
system.under.test: T1, human CD33 on the AML-derived HL60 cell line (human, UniProt P20138 18-364)
T1 construct: whole, on cells; also called CD33 expressing HL60 cell line
procedure.details: FACS Scatchard analysis on HL60 cells
// field semantics: pKd = negative decimal log of concentration (mol/L)

- 280-50-01 (antibody, human IgG1, kappa, V domains shown, Fully human monoclonal antibody; also called No 7; Clone ID# 280-50-01) VH: QVQLVQSGAEVKKPGSSVKVACKASGDTFSSYAISWVRQAPGQGLEWMGRVIPIIGIASYAQNFQGRVTITADRSTSTAYMALSSLRSEDTAVYYCARNWADAFDIWGQGTMVTVSS VL: DIQLTQSPSSLSASVGDRVTITCRASQGISSVLAWYQQKPGKAPKLLIYAASSLESGVPSRFSGSGSGTDFTLTISSLQPEDFATYYCQQFNSSITFGQGTKVEIKR: 9.52

Continue with the next binder.
stdin: Tell me the measured pKd of 280-03-08 (antibody, human IgG1, kappa, V domains shown, Fully human monoclonal antibody; also called No 1; Clone ID# 280-03-08) VH: QVQLVQSGAEVKKPGSSVKVSCKASGGTFSDYAISWVRQAPGQGLEWMGRIIPILGVANYAQKFQGRVTITADKSTRTAYMELSSLRSEDTAVYYCARNWADAFDIWGQGTMVTVSS VL: DIQLTQSPSSLSASVGDRVTITCRASQGISSVLAWYQQKPGKAPKLLIYDASSLESGVPSRFSGSGSGTDFTLTISSLQPEDFATYYCQQFNSSITFGQGTKLEIKR , please.
stdout: 9.52
